Cited source: patent US20240101538A1

- System: NMCdkn2a^ARF−/− cells
- test-name: Colony formation assay on NMCdkn2a^ARF−/− cells
- Type: cell-based, murine
- particulars: Mus musculus, 120 h, 5 days, read-out: EC (NMCdkn2a^ARF−/−)
quantity-measured: minimal effective concentration

> print(dat)
                                   compound      result.value
1  Cn1cc(-c2ccc(CNc3ccc(F)c(NC(=O)CCc4ccco4)c3)cc2F)cn1 [Compound 128a]  0.125 to 0.25 µM
2  Cn1cc(-c2ccc(CNc3ccc(F)c(NC(=O)C=Cc4ccccc4)c3)cc2)cn1 [Compound 107s]            > 1 µM
3  CCCn1cc(-c2ccc(CNc3ccc(F)c(NC(=O)CCc4ccco4)c3)cc2)cn1 [Compound 3c]            > 4 µM
4  Cn1cc(-c2ccc(CNc3ccc(F)c(NC(=O)CCc4ccco4)c3)cn2)cn1 [Compound 128e]            > 2 µM
5  Cn1cc(-c2ccc(COc3ccc(F)c(NC(=O)CCc4ccccc4)c3)cc2)cn1 [Compound 124]            > 1 µM
6  CC(=O)Nc1cc(NCc2ccc(-c3cn[nH]c3)cc2)ccc1F [Compound 2b]            > 4 µM
7  Cn1ncc(-c2ccc(CNc3ccc(F)c(NC(=O)CCc4ccco4)c3)cc2)c1N [Compound 146]            > 1 µM
8  COc1cc(CNc2ccc(F)c(NC(=O)CCc3ccco3)c2)ccc1-c1cnn(C)c1 [Compound 128b]          > 0.5 µM

----------
Reported minimal effective concentration values are given for each entry in this list.
- Test system: NMP53^−/− cells
- test-name: Colony formation assay on NMP53^−/− cells
- Type: cell-based, murine
- particulars: Mus musculus, 120 h, colony formation assay, 5 days; read-out: EC (NMP53^−/−)
quantity-measured: minimal effective concentration

> print(dat)
                                   molecule     study.system                quantity.measured  result.value
1  CC(=O)Nc1cc(NCc2ccc(-c3cn[nH]c3)cc2)ccc1F  NMP53^−/− cells  minimal effective concentration        > 4 µM
2  Cn1cc(-c2ccc(CNc3ccc(F)c(NC(=O)CCc4ccc[nH]4)c3)cc2)cn1 [Compound 107q]  NMP53^−/− cells  minimal effective concentration   0.5 to 1 µM
3  O=C(CCc1ccc[nH]1)Nc1cc(NCc2ccc(-c3cn[nH]c3)cc2)ccc1F [Compound 106q]  NMP53^−/− cells  minimal effective concentration     1 to 2 µM
